# Tested on: NCI-H23 lung
# PROTOCOL DESCRIPTION: NCI-60 one-dose screen, 48 h (100 = growth as untreated, 0 = no growth, -100 = all killed)
# CONDITIONS: 10 µM unless noted
About 83,000 compounds went through this panel and 20% of them were active in at least one assay; those are over-represented in the sample as a whole.
QUANTITY KIND: growth (%)

>>> observed_value("O=C1/C(=C\\c2ccco2)SC(=S)N1CCc1ccc(O)cc1")
101
>>> observed_value("O=C(NO)c1ccc(Cn2c(=O)n(CCc3ccc(O)cc3)c(=O)c3ccccc32)cc1")
-8.51
>>> observed_value("CN(C)CCCC1(c2ccc(F)cc2)OCc2cc(-c3ccc(C(F)(F)F)nc3)ccc21 (centres undefined)")
80.6
>>> observed_value("CC1(C)C(=O)/C(=C\\c2cccnc2)C[C@]2(C)[C@H]3CC[C@@H]4[C@@H](C(=O)/C=C/c5ccncc5)CC[C@@]4(C)[C@]3(C)CC[C@@H]12")
5.99
>>> observed_value("COC(=O)C(N)CSC(c1ccccc1)(c1ccccc1)c1ccccc1 (centres undefined)")
45.5
>>> observed_value("CN1CCN(c2nc(-c3cccc4ccccc34)nc3sc4c(c23)CCCCCC4)CC1")
92.2
>>> observed_value("C/C(=N\\Nc1cc(C)c2ccccc2n1)c1ccccn1")
14
>>> observed_value("O=C1c2ccccc2C(=Cc2ccccc2)c2ccccc21")
2.92
>>> observed_value("O=C1c2ccccc2NC(c2cn(-c3ccccc3)nc2-c2cccnc2)N1Cc1ccccc1 (centres undefined)")
92.3
>>> observed_value("COc1ccc2nc(-c3cc(-c4cc(OC)c(OC)c(OC)c4)n[nH]3)[nH]c2c1")
7.44
>>> observed_value("COc1ccc2c(c1)c(-c1nc(-c3c[nH]c4ncccc34)cs1)cn2CCN")
68
>>> observed_value("C=C(C)[C@@H]1CC[C@]2(C(=O)NNC(=O)c3cccnc3)CC[C@]3(C)[C@H](CC[C@@H]4[C@@]5(C)CCCNC(C)(C)[C@@H]5CC[C@]43C)[C@@H]12")
84.4
>>> observed_value("Nc1c(C(=O)Nc2c(Cl)cccc2Cl)sc2nc3c(cc12)C(=O)CCC3")
48.5
>>> observed_value("Cc1nnc2nc(N)[nH]n2c1=O")
103
>>> observed_value("COC(=O)C(Cc1ccccc1)n1cc(COc2nc(Cl)nc(Nc3ccc(Cl)cc3)n2)nn1 (centres undefined)")
92.5
>>> observed_value("COc1cnc2c(c1)C(=O)c1c-2n(CCCNCCN2CCOCC2)c(=O)c2cc([N+](=O)[O-])ccc12")
-21.7
>>> observed_value("CCSc1sc(-c2ccc(C)cc2)nc1[P+](c1ccccc1)(c1ccccc1)c1ccccc1")
-13.9
>>> observed_value("CCCCCCCCNc1cccc2c1C(=O)c1ccccc1C2=O")
102
>>> observed_value("COc1cc2[nH]c(C(=O)c3cc(OC)c(OC)c(OC)c3)c(N)c2cc1C#CC1CC1")
50.3

====

Listed next: entries and their corresponding growth.
# System: A549/ATCC NSCLC
# PROTOCOL DESCRIPTION: NCI-60 one-dose screen, 48 h (100 = growth as untreated, 0 = no growth, -100 = all killed)
# CONDITIONS: 10 µM unless noted
This is part of a sample that, as a whole, favours compounds with a hit. Of some 83,000 tested, about 20% had one in any assay.
QUANTITY KIND: growth (%)

>>> observed_value("CCOc1ccc(NC(=O)c2ccoc2COc2ccccc2)cc1")
103
>>> observed_value("Fc1ccc2c(c1)c(-c1nc(-c3c[nH]c4ncccc34)cs1)cn2CCCN1CCCCC1")
65.7
>>> observed_value("Cc1ccc2c(c1)c1nc3cc(C)c(C)cc3nc1n2CCN(C)C")
12.2
>>> observed_value("C=C(C)[C@@H]1CC[C@]2(C(=O)N3CCN(C)CC3)CC[C@]3(C)[C@H](CC[C@@H]4[C@@]5(C)C/C(=C/c6ccc(C(F)(F)F)cc6)C(=O)C(C)(C)[C@@H]5CC[C@]43C)[C@@H]12")
92.6
>>> observed_value("COc1cc(/C=C/c2cc(/C=C/c3ccc(O)c(OC)c3)n(-c3ccccc3)c(=O)n2)ccc1O")
90.6
>>> observed_value("C=C(C)[C@@H]1CC[C@]2(C=NCCCNCCCCNCCCN)CC[C@]3(C)[C@H](CC[C@@H]4[C@@]5(C)CCCNC(C)(C)[C@@H]5CC[C@]43C)[C@@H]12")
88.8
>>> observed_value("O=c1[nH]ncc(Br)c1Br")
69.3
>>> observed_value("CCN(CC)C(=O)CCCCCn1c2ccccc2c2c3c(c4c5ccccc5[nH]c4c21)C(=O)N(O)C3=O")
87.2
>>> observed_value("CC1(C)[C@@H](O)CC[C@]2(C)[C@H]3CC[C@@H]4[C@H]5[C@H](C(=O)/C=C/c6ccc(C(F)(F)F)cc6)CC[C@]5(CO)CC[C@@]4(C)[C@]3(C)CC[C@@H]12")
47.8
>>> observed_value("CC(C)=CCC[C@](C)(O)[C@H]1CC[C@]2(C)[C@@H]1CC[C@@H]1[C@@]3(C)C/C(=C/c4cccc([N+](=O)[O-])c4)C(=O)C(C)(C)[C@@H]3CC[C@]12C")
71
>>> observed_value("Cc1csc(Nc2nc(-c3cccc(Br)c3)nc(C(Cl)(Cl)Cl)n2)n1")
5.62
>>> observed_value("Cc1ccc(C)c2c1CCC2C(C)C (configuration not stated)")
87.2
>>> observed_value("COc1cccc(-c2nn(-c3ccccc3)cc2-c2ccnc(NCCNS(=O)(=O)c3ccc(Cl)cc3)c2)c1")
27.4
>>> observed_value("O=C1c2ccccc2NC(c2cn(-c3ccccc3)nc2-c2cccs2)N1Cc1ccccc1 (configuration not stated)")
82.8
>>> observed_value("COc1cc(-c2cc3cc(O)ccc3oc2=O)cc(OC)c1OC")
107
>>> observed_value("N=C(N)c1ccc(-c2ccc(-c3cc(F)cc(F)c3)o2)nc1")
94.8
>>> observed_value("Cn1cc(-c2csc(-c3cn(CCNC(=O)OC(C)(C)C)c4ccc(F)cc34)n2)c2cccnc21")
63.1
